Record form. Attribute: U937 Cytotoxicity Human T-cells [M] (EC50). Fill in for each entry.
test_target: T1, human CD3 expressed on cells (Jurkat, a CD3+ human T-cell line; human T cells) (human, UniProt P07766 23-126; P04234 22-100)
T1 chain 1: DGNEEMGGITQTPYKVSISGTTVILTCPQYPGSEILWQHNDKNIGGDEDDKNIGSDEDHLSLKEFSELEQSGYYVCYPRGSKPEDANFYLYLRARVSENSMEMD
T1 chain 2: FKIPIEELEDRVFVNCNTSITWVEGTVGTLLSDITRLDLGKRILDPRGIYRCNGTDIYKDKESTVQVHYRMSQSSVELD
protocol_description: cell-based or functional assay
I'd appreciate it if you included the unit after the number.

I'd like to know its U937 Cytotoxicity Human T-cells [M] (EC50). The binder in question is H1H5792B (antibody, human IgG1, V domains shown) VH: QVQLVESGGGVVQPGRSLRLSCAASGFTFSSYGMHWVRQAPGKGLEWVSTISFDGSNKYYADSVKGRFTISRDNSKNTLYLQMNSLRPEDTAVYYCAKGGGTSGSYFYYGMDVWGQGTTVTVSS VL: AIQMTQSPSSLSASVGDRVTITCRASQRISSFLNWYQQKPGKAPKLLIYTASNLQNGVPSRFSGSGSGTDFTLTISSLQPEDFATYYCQQSYRTPLTFGGGTKLEIKR
1.4e-10 M

Quick one: H1H5788P (antibody, V domains shown) VH: EVQLVESGGGLVQPGRSLRLSCAASGFTFDDYTMHWVRQAPGKGLEWVSGISWNSGSIGYADSVKGRFTISRDNAKNSLYLQMNSLRAEDTALFYCAKDQSGYGHYYYGMDVWGQGTTVTVSS VL: EIVMTQSPATLSVSPGERATLSCRASQSVSSNLAWYQQKPGQAPRLLIYGASTRATDIPARFSGSGSGTEFTLTISSLQSEDFAVYHCQQYNNWPLTFGGGTKVEIK
1.54e-11 M
